- Tested On: T1, HLA-A*0101 (human)
- T1 construct: also called HLA-A1
- Measurement Notes: competition with 125I-labelled probe peptide for purified HLA-A*0101, gel filtration; relative to standard peptide
Measured Metric: relative binding ratio (IC50 of standard peptide / IC50 of test peptide) (relative binding ratio)
Just the number please, in relative binding ratio, no unit attached.

Past entries and their recorded results:
>>> measured_number("PTHDPSPLQRY (H is used here) [HER2/neu peptide, position 1102, 11 amino acids]")
0.016
>>> measured_number("ETHLDMLRHLY (also called Her2/neu.40) [HER2/neu peptide, position 40, 11 amino acids]")
0.28
>>> measured_number("PSGVKPDLSY [HER2/neu peptide, position 601, 10 amino acids]")
0.001
>>> measured_number("LEEITGYLY [HER2/neu peptide, position 403, 9 amino acids]")
0.0057

input: Specify reported relative binding ratio (IC50 of standard peptide / IC50 of test peptide) for the binder shown: SMPNPEGRY [HER2/neu peptide, position 281, 9 amino acids]
output: 0.0028

input: Let me know recorded relative binding ratio (IC50 of standard peptide / IC50 of test peptide) for MTFGAKPY [HER2/neu peptide, position 916, 8 amino acids] , thanks.
output: -0.0021

input: Check the records and state relative binding ratio (IC50 of standard peptide / IC50 of test peptide) for LMTFGAKPY [HER2/neu peptide, position 915, 9 amino acids]
output: 0.0011

input: Find the measured relative binding ratio (IC50 of standard peptide / IC50 of test peptide) of LGSGAFGTVY [HER2/neu peptide, position 726, 10 amino acids] and report it.
output: 0.001
